Here, each record is paired with measured Enzyme pIC50 data.
- ASSAYED TARGET: PHD2181-417 (Homo sapiens (Human), UniProt Q9GZT9)
- Sequence (Q9GZT9 181-417): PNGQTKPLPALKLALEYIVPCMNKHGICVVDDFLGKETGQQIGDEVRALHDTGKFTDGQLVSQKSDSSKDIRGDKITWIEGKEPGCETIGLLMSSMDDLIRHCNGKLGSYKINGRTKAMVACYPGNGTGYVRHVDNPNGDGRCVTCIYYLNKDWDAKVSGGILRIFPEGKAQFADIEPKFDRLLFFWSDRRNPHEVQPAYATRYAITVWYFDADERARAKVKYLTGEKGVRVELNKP
- METHOD SUMMARY: PHD enzymatic assay ([14C]-succinic acid production)
- Assay type: biochemical
- APPLIED CONDITIONS: purified PHD2181-417, HIF-1α peptide substrate, 30 min pre-incubation; average of results
Give a plain numeric answer without units written out.

Answered cases to consult:
molecule="O=C(O)c1cnn(-c2nc(Nc3ccccc3Cl)c3cc(-c4ccccc4)ccc3n2)c1 [Example 47]" assayed_target="PHD2181-417 (Homo sapiens (Human), UniProt Q9GZT9)" metric="Enzyme pIC50" val=6.6
molecule="CN1CCCN(c2nc(-n3cc(C(=O)O)cn3)nc3ccc(-c4ccccc4)cc23)CC1 [Example 57]" assayed_target="PHD2181-417 (Homo sapiens (Human), UniProt Q9GZT9)" metric="Enzyme pIC50" val=6.4
molecule="CN(C)c1nc(-n2cc(C(=O)O)cn2)nc2cc(Cl)c(OC3CCCCC3)cc12 [Example 137]" assayed_target="PHD2181-417 (Homo sapiens (Human), UniProt Q9GZT9)" metric="Enzyme pIC50" val=7.4
molecule="O=C(O)c1cnn(-c2nc(Nc3ccccc3Cl)c3cc(C4CCCCC4)ccc3n2)c1 [Example 29]" assayed_target="PHD2181-417 (Homo sapiens (Human), UniProt Q9GZT9)" metric="Enzyme pIC50" val=7.1
molecule="Cc1cccc(C)c1Oc1cc2c(NC3CCOCC3)nc(-n3cc(C(=O)O)cn3)nc2cc1F [Example 16]" assayed_target="PHD2181-417 (Homo sapiens (Human), UniProt Q9GZT9)" metric="Enzyme pIC50" val=7.1
molecule="O=C(O)c1cnn(-c2nc(N3CCCC3)c3ccc(-c4ccccc4)cc3n2)c1 [Example 81]" assayed_target="PHD2181-417 (Homo sapiens (Human), UniProt Q9GZT9)" metric="Enzyme pIC50" val=5.5

Input line: Entry CCN(C)c1nc(-n2cc(C(=O)O)cn2)nc2ccc(-c3ccccc3)cc12 [Example 42] , system PHD2181-417 (Homo sapiens (Human), UniProt Q9GZT9): what Enzyme pIC50 was measured?
Output line: 7.3

Input line: Entry CCN(C)c1nc(-n2cc(C(=O)O)cn2)nc2cc(Cl)c(C(C)C)cc12 [Example 164] , system PHD2181-417 (Homo sapiens (Human), UniProt Q9GZT9): what Enzyme pIC50 was measured?
Output line: 7.4

Input line: Entry CC(C)c1cc2c(N3CCOCC3)nc(-n3cc(C(=O)O)cn3)nc2cc1Cl [Example 160] , system PHD2181-417 (Homo sapiens (Human), UniProt Q9GZT9): what Enzyme pIC50 was measured?
Output line: 6.8

Input line: Entry CCN(CC)c1nc(-n2cc(C(=O)O)cn2)nc2ccc(Oc3ccc(Cl)cc3)cc12 [Example 60] , system PHD2181-417 (Homo sapiens (Human), UniProt Q9GZT9): what Enzyme pIC50 was measured?
Output line: 7.3

Input line: Entry O=C(O)c1cnn(-c2nc(NC3CCCCC3)c3ccc(Oc4ccccc4)cc3n2)c1 [Example 97] , system PHD2181-417 (Homo sapiens (Human), UniProt Q9GZT9): what Enzyme pIC50 was measured?
Output line: 7.0

###

- ASSAYED TARGET: PHD2181-417 (Homo sapiens (Human), UniProt Q9GZT9)
- METHOD SUMMARY: PHD enzymatic assay ([14C]-succinic acid production)
- Assay type: biochemical
- APPLIED CONDITIONS: purified PHD2181-417, HIF-1α peptide substrate, 30 min pre-incubation; average of results
Here, each record is paired with measured Enzyme pIC50 data.
Give a plain numeric answer without units written out.

Answered cases to consult:
smiles_text=O=C(O)c1cnn(-c2nc(Nc3ccccc3)c3cc(Oc4ccc(Cl)cc4)ccc3n2)c1 val=7.7
smiles_text=CC(C)c1ccc2nc(-n3cc(C(=O)O)cn3)nc(NC3CC3)c2c1 val=6.0
smiles_text=O=C(O)c1cnn(-c2nc(N3CCCC3)c3cc(Oc4ccccc4)ccc3n2)c1 val=7.2
smiles_text=CCCN(CCC)c1nc(-n2cc(C(=O)O)cn2)nc2cc(F)c(Oc3c(C)cccc3C)cc12 val=7.4
smiles_text=CC(C)C1CCN(c2nc(-n3cc(C(=O)O)cn3)nc3cc(Oc4ccccc4)ccc23)CC1 val=6.8
smiles_text=CC(C)c1ccc2nc(-n3cc(C(=O)O)cn3)nc(N3CCOCC3)c2c1 val=5.7
smiles_text=O=C(O)c1cnn(-c2nc(N3CCCCC3)c3cc(Oc4ccc(Cl)cc4)ccc3n2)c1 val=7.6
smiles_text=CCN(C)c1nc(-n2cc(C(=O)O)cn2)nc2cc(F)c(OC3CCCCC3)cc12 val=7.1

Input line: Param item = CN(C)c1nc(-n2cc(C(=O)O)cn2)nc2ccc(-c3ccccc3)cc12 ; retrieve measured Enzyme pIC50.
Output line: 7.2

Input line: Param item = CCN(C)c1nc(-n2cc(C(=O)O)cn2)nc2cc(Cl)c(OC3CCCCC3)cc12 ; retrieve measured Enzyme pIC50.
Output line: 7.2
